Data credit: ChEMBL document CHEMBL1145929

Provide the recorded Ki for the entries that follow.
Number first, unit second.

The compound Cc1ccc(OC(c2ccc(F)cc2)C2CCCNC2)cc1 (stereo not given) , tested on UniProt:P31652, showed Ki of 22.6 nM

Observed Ki, UniProt:P31652, Fc1ccccc1OC(c1ccccc1)C1CCNCC1 (single isomer, unassigned; (+)) : 28.5 nM

Noted Ki for OC1(c2ccc(Cl)cc2)c2ccccc2C2=NCCN21 (stereo not given) [MAZINDOL] , tested on UniProt:P31652: 248 nM

With UniProt:P31652 as the test system, Oc1ccc(OC(c2ccccc2)C2CCNCC2)cc1F (stereo not given) showed Ki of 21.3 nM

Form: item Cc1ccc(Cl)cc1OC(c1ccccc1)C1CCNCC1 (stereo not given) ; test system UniProt:P31652; Ki: 15.6 nM

====

Exercise: state measured pKi for each of the compounds provided.
Target: 5-hydroxytryptamine receptor 1A (Rattus norvegicus, UniProt P19327)
Sequence (P19327 whole entry): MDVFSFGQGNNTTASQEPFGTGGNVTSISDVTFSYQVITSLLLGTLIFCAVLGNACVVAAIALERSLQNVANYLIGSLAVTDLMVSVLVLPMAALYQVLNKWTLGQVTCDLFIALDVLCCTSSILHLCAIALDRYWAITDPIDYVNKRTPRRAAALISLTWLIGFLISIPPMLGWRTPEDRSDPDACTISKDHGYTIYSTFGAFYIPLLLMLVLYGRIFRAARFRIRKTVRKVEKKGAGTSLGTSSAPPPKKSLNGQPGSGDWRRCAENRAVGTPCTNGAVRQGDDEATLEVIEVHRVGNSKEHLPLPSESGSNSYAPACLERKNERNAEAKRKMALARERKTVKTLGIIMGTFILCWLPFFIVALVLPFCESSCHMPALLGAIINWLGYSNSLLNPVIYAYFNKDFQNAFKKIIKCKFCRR
# pKi is unitless: minus log10 of the molar concentration; print number only

For O=[N+]([O-])c1ccc(OC(CCN2CCN(c3n[o+][c-]4ccccc34)CC2)c2ccccc2)cc1 (stereo unspecified) the compound record lists pKi as 6.59

compound COc1ccc(OC(CCC(=O)C2CCN(c3ccc(F)cc3)CC2)c2ccccc2)cc1 (stereo unspecified) , pKi observed: 7.03

According to the records, this compound COc1ccc(OC(CCN2CCN(c3nsc4ccccc34)CC2)c2ccccc2)cc1 (stereo unspecified) displays pKi of 7.16

What the record says about Nc1ccc(OC(CCC(=O)C2CCN(c3ccc(F)cc3)CC2)c2ccccc2)cc1 (stereo unspecified) : pKi is 6.97

What the record says about FC(F)(F)c1ccc(OC(CCN2CCN(c3nsc4ccccc34)CC2)c2ccccc2)cc1 (stereo unspecified) : pKi is 7.47

The recorded pKi for Fc1ccccc1OC(CCN1CCN(c2noc3ccccc23)CC1)c1ccccc1 (stereo unspecified) is 6.93

====

Target: Norepinephrine transporter (Rattus norvegicus, UniProt Q9WTR4)
Sequence (Q9WTR4 whole entry): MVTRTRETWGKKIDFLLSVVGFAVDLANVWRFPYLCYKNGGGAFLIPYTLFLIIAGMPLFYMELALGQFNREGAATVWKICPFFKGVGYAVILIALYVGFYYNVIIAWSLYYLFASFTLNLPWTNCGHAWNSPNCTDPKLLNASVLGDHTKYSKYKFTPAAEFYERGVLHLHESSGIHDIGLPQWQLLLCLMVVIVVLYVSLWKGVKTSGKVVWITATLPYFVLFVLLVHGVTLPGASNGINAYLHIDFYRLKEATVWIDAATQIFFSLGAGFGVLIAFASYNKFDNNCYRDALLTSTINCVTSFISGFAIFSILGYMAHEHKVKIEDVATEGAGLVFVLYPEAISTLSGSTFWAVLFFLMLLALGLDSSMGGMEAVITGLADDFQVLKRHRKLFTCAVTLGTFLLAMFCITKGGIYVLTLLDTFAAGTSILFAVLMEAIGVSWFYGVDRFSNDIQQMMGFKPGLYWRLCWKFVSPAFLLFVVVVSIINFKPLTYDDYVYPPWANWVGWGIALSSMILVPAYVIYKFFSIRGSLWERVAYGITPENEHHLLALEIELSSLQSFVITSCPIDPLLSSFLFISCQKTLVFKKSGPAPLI
Measure: pKi
Note on pKi: it is the negative log10 of concentration, concentration in mol/L.

Reported pKi ( Fc1cccc(OC(c2ccccc2)C2CCNCC2)c1 (stereo in doubt; (-)-15j) ) = 7.87

Recorded result, OC1(c2ccc(Cl)cc2)c2ccccc2C2=NCCN21 (configuration not stated) , pKi: 9.10

Looking up Fc1cccc(C(Oc2ccccc2F)C2CCNCC2)c1 (single isomer, unassigned; (-)) , I see its pKi listed as 7.72

So for Fc1ccccc1OC(c1ccccc1)C1CCNCC1 (single isomer, unassigned; (-)) , the logged pKi turned out to be 7.65

What the record says about Fc1cccc(C(Oc2ccccc2F)C2CCNCC2)c1 (single isomer, unassigned; (+)) : pKi is 7.32

The compound listed as Fc1ccccc1OC(c1ccccc1)C1CCNCC1 (single isomer, unassigned; (+)) has a reported pKi of 7.38

The reported pKi of the compound Fc1cccc(OC(c2ccccc2)C2CCNCC2)c1 (stereo in doubt; (+)-15j) was 7.01

====

Target: Sodium-dependent serotonin transporter (Rattus norvegicus)
Sequence (P31652 whole entry): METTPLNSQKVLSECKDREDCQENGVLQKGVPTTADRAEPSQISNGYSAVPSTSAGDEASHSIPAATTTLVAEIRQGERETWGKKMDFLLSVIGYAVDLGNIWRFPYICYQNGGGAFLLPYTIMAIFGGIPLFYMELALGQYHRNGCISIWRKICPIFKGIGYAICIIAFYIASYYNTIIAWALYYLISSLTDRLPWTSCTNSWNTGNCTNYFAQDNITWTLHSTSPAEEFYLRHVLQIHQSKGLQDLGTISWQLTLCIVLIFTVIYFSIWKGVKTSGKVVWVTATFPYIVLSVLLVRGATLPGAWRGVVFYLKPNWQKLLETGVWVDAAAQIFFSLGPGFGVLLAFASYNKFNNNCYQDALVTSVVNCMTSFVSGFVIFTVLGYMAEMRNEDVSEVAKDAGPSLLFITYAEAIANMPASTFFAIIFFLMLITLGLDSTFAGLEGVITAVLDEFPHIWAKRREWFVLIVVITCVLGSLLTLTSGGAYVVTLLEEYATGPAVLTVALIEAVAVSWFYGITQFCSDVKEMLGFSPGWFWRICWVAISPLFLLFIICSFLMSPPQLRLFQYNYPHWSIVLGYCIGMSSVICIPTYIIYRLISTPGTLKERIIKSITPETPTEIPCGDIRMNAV
Protocol summary: Binding affinity against serotonin transporter (SERT) by displacement of [3H]paroxetine in male wistar rats
Measure: IC50

Result for COc1ccc(OC(CCN2CCN(c3noc4ccccc34)CC2)c2ccccc2)cc1 (stereo unspecified) , tested on Sodium-dependent serotonin transporter (Rattus norvegicus), IC50: > 1 µM

Readout IC50 for CN1CCN2c3ncccc3Cc3ccccc3C2C1 (stereo unspecified) , test system Sodium-dependent serotonin transporter (Rattus norvegicus), was > 1 µM

Form: item O=C(CCC(Oc1ccccc1F)c1ccccc1)C1CCN(c2ccc(F)cc2)CC1 (stereo unspecified) ; test system Sodium-dependent serotonin transporter (Rattus norvegicus); IC50: > 1 µM

Tested on Sodium-dependent serotonin transporter (Rattus norvegicus), the item FC(F)(F)c1ccccc1OC(CCN1CCN(c2nsc3ccccc23)CC1)c1ccccc1 (stereo unspecified) showed IC50 equal to > 1 µM

Readout IC50 for Clc1ccc(OC(CCN2CCc3ccccc3C2)c2ccccc2)cc1 (stereo unspecified) , test system Sodium-dependent serotonin transporter (Rattus norvegicus), was > 1 µM

Sodium-dependent serotonin transporter (Rattus norvegicus) data for O=C(CCC(Oc1ccc([N+](=O)[O-])cc1)c1ccc(F)cc1)C1CCN(c2ccc(F)cc2)CC1 (stereo unspecified) ; its IC50: > 1 µM

====

Target: UniProtKB P31652
Values of Ki strictly less than 20 nM map to Yes, and values of at least 20 nM map to No.

Does N#Cc1ccc(OC(c2ccc(F)cc2)C2CCCNC2)cc1 (stereo unspecified) have Ki strictly under 20 nM?
No

Please indicate whether the reported Ki of Ic1cccc(OC(c2ccccc2)C2CCNCC2)c1 (stereo unspecified) is strictly below 20 nM.
Yes

Check if Ki falls below 20 nM for Cc1ccc(C(Oc2cccc(F)c2)C2CCNCC2)cc1 (stereo unspecified) .
Yes

Lab log: compare recorded Ki with 20 nM; is it strictly lower for Fc1ccc(C(Oc2ccccc2)C2CCCNC2)cc1 (stereo unspecified) ?
No

Ki strictly < 20 nM for this compound? Fc1ccc(OC(CC2CCNCC2)c2ccccc2)cc1 (stereo unspecified)
No

Say whether its Ki is strictly beneath 20 nM. Entry: Brc1ccc(OC(c2ccccc2)C2CCNCC2)cc1 (stereo in doubt; 15r)
Yes

Record Fc1cccc(OC(c2cccc(F)c2)C2CCNCC2)c1 (single isomer, unassigned; (+)) : is its Ki strictly below 20 nM?
Yes

Take the compound FC(F)(F)c1ccccc1OC(c1ccccc1)C1CCNCC1 (stereo unspecified) and say whether its Ki is less than 20 nM.
No

In the record for Fc1ccccc1OC(c1ccccc1)C1CCNCC1 (stereo in doubt; 15b) , is Ki less than 20 nM?
Yes

Is Ki of N#Cc1ccc(OC(c2ccccc2)C2CCNCC2)cc1Cl (stereo unspecified) strictly below 20 nM?
Yes

Below 20 nM on Ki? Entry Clc1ccc(C(Oc2ccccc2)C2CCNCC2)cc1 (stereo unspecified)
Yes

====

The listing below reports pIC50 for molecules tested on Norepinephrine transporter (Rattus norvegicus).
pIC50: −log10 of the molar value.

For record O=[N+]([O-])c1ccc(OC(c2ccccc2)C2CCNCC2)cc1 (single isomer, unassigned; (-)) the listed pIC50 is < 6.30

// Brc1ccc(OC(c2ccccc2)C2CCNCC2)cc1 (single isomer, unassigned; (-)) : pIC50 value = < 6.30

Entry Brc1ccc(OC(c2ccccc2)C2CCNCC2)cc1 (single isomer, unassigned; (+)) — recorded pIC50 = < 6.00

pIC50 reported for this molecule FC(F)(F)c1ccc(OC(c2ccccc2)C2CCNCC2)cc1 (single isomer, unassigned; (-)) : < 6.00

pIC50 for c1ccc(C(Oc2cccc3ccccc23)C2CCNCC2)cc1 (stereo in doubt; (-)-15au) is < 6.00

Lab note: O=[N+]([O-])c1ccc(OC(c2ccccc2)C2CCNCC2)cc1 (single isomer, unassigned; (+)) gave pIC50 of < 6.00

Measured pIC50 of FC(F)(F)c1ccc(OC(c2ccccc2)C2CCNCC2)cc1 (stereo in doubt; (+)-15q) : < 6.00

CCCN(CCC)C1CCc2cccc(O)c2C1 (stereo not drawn) [8-OH-DPAT] yielded pIC50 of < 6.00

====

Parameter 'readout' = IC50; parameter 'system' = Sodium-dependent dopamine transporter (Rattus norvegicus, UniProt P23977).
Sequence (P23977 whole entry): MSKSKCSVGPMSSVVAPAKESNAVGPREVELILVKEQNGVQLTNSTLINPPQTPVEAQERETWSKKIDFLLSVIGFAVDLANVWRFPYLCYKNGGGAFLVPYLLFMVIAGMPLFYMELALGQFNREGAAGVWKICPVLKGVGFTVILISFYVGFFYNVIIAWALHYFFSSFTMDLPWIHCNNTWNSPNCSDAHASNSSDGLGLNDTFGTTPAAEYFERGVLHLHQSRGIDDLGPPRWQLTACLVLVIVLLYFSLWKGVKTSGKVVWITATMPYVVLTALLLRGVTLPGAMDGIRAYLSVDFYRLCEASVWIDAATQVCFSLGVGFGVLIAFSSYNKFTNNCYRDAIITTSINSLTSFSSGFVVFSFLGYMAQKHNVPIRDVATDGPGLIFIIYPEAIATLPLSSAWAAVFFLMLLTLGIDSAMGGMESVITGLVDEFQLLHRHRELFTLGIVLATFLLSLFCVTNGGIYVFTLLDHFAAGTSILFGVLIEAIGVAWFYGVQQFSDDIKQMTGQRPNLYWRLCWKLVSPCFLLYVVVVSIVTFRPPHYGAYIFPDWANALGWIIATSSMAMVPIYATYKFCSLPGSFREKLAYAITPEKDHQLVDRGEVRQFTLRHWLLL

Let me check: CCCN(CCC)C1CCc2cccc(O)c2C1 (stereo not drawn) , system Sodium-dependent dopamine transporter (Rattus norvegicus, UniProt P23977), measured IC50 is > 1 µM

# FC(F)(F)c1ccc(OC(c2ccccc2)C2CCNCC2)cc1 (stereo in doubt; (+)-15q) with Sodium-dependent dopamine transporter (Rattus norvegicus, UniProt P23977): IC50 is > 1 µM

Brc1ccc(OC(c2ccccc2)C2CCNCC2)cc1 (single isomer, unassigned; (+)) on Sodium-dependent dopamine transporter (Rattus norvegicus, UniProt P23977) gives IC50 = > 1 µM

Lab entry: Sodium-dependent dopamine transporter (Rattus norvegicus, UniProt P23977) assay, molecule Fc1cc(F)cc(OC(c2ccccc2)C2CCNCC2)c1 (stereo in doubt; (-)-15aj) , IC50 = > 1 µM

// returns IC50 for CN1CCN2c3ncccc3Cc3ccccc3C2C1 (stereo not drawn) with Sodium-dependent dopamine transporter (Rattus norvegicus, UniProt P23977); value = > 1 µM

The recorded IC50 with Sodium-dependent dopamine transporter (Rattus norvegicus, UniProt P23977) for c1ccc(C(Oc2cccc3ccccc23)C2CCNCC2)cc1 (single isomer, unassigned; (+)) was > 1 µM

Item: O=[N+]([O-])c1ccc(OC(c2ccccc2)C2CCNCC2)cc1 (single isomer, unassigned; (+)) | System: Sodium-dependent dopamine transporter (Rattus norvegicus, UniProt P23977) | IC50: > 1 µM

Given the molecule Fc1ccccc1OC(c1ccccc1)C1CCNCC1 (single isomer, unassigned; (-)) and test system Sodium-dependent dopamine transporter (Rattus norvegicus, UniProt P23977), the measured IC50 is > 1 µM

# value of IC50, Sodium-dependent dopamine transporter (Rattus norvegicus, UniProt P23977), item FC(F)(F)c1ccc(OC(c2ccccc2)C2CCNCC2)cc1 (single isomer, unassigned; (-)) = > 1 µM

Lab note: molecule Fc1cccc(C(Oc2ccccc2F)C2CCNCC2)c1 (single isomer, unassigned; (-)) tested on Sodium-dependent dopamine transporter (Rattus norvegicus, UniProt P23977); recorded IC50 was > 0.5 µM

Entry Fc1cc(F)cc(OC(c2ccccc2)C2CCNCC2)c1 (stereo in doubt; (+)-15aj) , Sodium-dependent dopamine transporter (Rattus norvegicus, UniProt P23977) data, IC50 value: > 0.5 µM

IC50 of O=[N+]([O-])c1ccc(OC(c2ccccc2)C2CCNCC2)cc1 (single isomer, unassigned; (-)) , assay on Sodium-dependent dopamine transporter (Rattus norvegicus, UniProt P23977), is > 1 µM

Item Fc1cccc(OC(c2cccc(F)c2)C2CCNCC2)c1 (single isomer, unassigned; (+)) was tested on Sodium-dependent dopamine transporter (Rattus norvegicus, UniProt P23977); the reported IC50 is > 0.5 µM
